# System: SNB-19
# assay_text: antiproliferative activity (WST-1), glioblastoma SNB-19
# Format: cell-based, human
# experimental_parameters: selectivity index, HFF-1 vs SNB-19
measured_metric: SI (IC50 HFF-1/IC50 cancer line) SNB-19

Req: Name the reported SI (IC50 HFF-1/IC50 cancer line) SNB-19 value associated with the compound O=C1C(Cl)=C(OCC#CC=CC#CCO)C(=O)c2ccccc21
Resp: 0.52

Req: Now consider O=C1C(Cl)=C(Cl)C(=O)c2ccccc21 [Compound 1, 2,3-Dichloro-1,4-naphtoquinon, reference compound] .
Resp: 0.59

Req: Try this compound next: CCCOC1=C(Cl)C(=O)c2ccc(C)nc2C1=O
Resp: 0.80

Req: Next up: C#CCOC1=C(Cl)C(=O)c2cccnc2C1=O
Resp: 0.16

Req: Now the same for Cc1ccc2c(n1)C(=O)C(OCC#CC=CC#CCO)=C(Cl)C2=O
Resp: 0.16

###

# Tested on: SNB-19
# assay_text: antiproliferative activity (WST-1), glioblastoma SNB-19
# Assay type: cell-based, human
# experimental_parameters: Homo sapiens; glioblastoma SNB-19, 72 h, WST-1; Neg: negative in the concentration used; read-out: IC50 ± SD SNB-19
Please go through the items and note down their IC50.
Reply numerically in µM, unit not repeated.

Req: // query IC50 value for entry CCCOC1=C(OCCC)C(=O)c2ccccc2C1=O
Resp: 19.9

Req: Item: O=C1C2=C(OCC#C/C=C\C#CCO2)C(=O)c2ncccc21
Resp: 31.5

Req: Repeat with C=CCOC1=C(OCC=C)C(=O)c2nc(C)ccc2C1=O
Resp: 16.6

Req: Try this compound too: CCCOC1=C(Cl)C(=O)c2ccc(C)nc2C1=O
Resp: 19.8

Req: Again, but for O=C1C2=C(OCC#C/C=C\C#CCO2)C(=O)c2ccccc21
Resp: 22.8

###

# System: SNB-19
# assay_text: antiproliferative activity (WST-1), glioblastoma SNB-19
# Type: cell-based, human
# experimental_parameters: selectivity index, HFF-1 vs SNB-19
Returns met if the recorded SI (IC50 HFF-1/IC50 cancer line) SNB-19 is greater than or equal to 0.7, and not met otherwise.

Req: # check: SI (IC50 HFF-1/IC50 cancer line) SNB-19 of Cc1ccc2c(n1)C(=O)C(Cl)=C(Cl)C2=O [Compound 3, 6,7-dichloro-2-methyl-5,8-quinolinedione] is greater than or equal to 0.7
Resp: not met

Req: Same read-out for C=CCOC1=C(Cl)C(=O)c2ccccc2C1=O [Compound 5] ?
Resp: met

Req: Next compound: CCCOC1=C(Cl)C(=O)c2ccccc2C1=O [Compound 4, 2-Chloro-3-propoxy-1,4-naphtoquinon]
Resp: met

Req: For C=CCOC1=C(Cl)C(=O)c2ccc(C)nc2C1=O [Compound 11] then?
Resp: not met

Req: Same lookup for C#CCOC1=C(OCC#C)C(=O)c2ccccc2C1=O [Compound 15, 2,3-di(2-Propynoxy)-1,4-naphthoquinon] , please.
Resp: met

Req: Another compound: OCC#C/C=C\C#CCO [Compound 22, (Z)-oct-4-ene-2,6-diyne-1,8-diol]
Resp: met

Req: Try this compound too: C#CCOC1=C(Cl)C(=O)c2ccccc2C1=O [Compound 6]
Resp: not met

Req: Next record, please: Cc1ccc2c(n1)C(=O)C1=C(OCC#C/C=C\C#CCO1)C2=O [Compound 28]
Resp: not met

Req: One more compound: C=CCOC1=C(OCC=C)C(=O)c2ccccc2C1=O [Compound 14, 2,3-di(2-Propenoxy)-1,4-naphthoquinon]
Resp: not met

Req: Next: C#CCOC1=C(OCC#C)C(=O)c2ncccc2C1=O [Compound 18]
Resp: not met

Req: Record: C#CCOC1=C(OCC#C)C(=O)c2nc(C)ccc2C1=O [Compound 21]
Resp: not met

Req: Field entry: N.N.[Cl][Pt][Cl] [cisplatin, reference compound]
Resp: not met

Req: Record: C=CCOC1=C(OCC=C)C(=O)c2nc(C)ccc2C1=O [Compound 20]
Resp: not met

Req: Try this compound next: CCCOC1=C(OCCC)C(=O)c2ccccc2C1=O [Compound 13, 2,3-Dipropoxy-1,4-naphtoquinon]
Resp: not met

Req: Lookup O=C1C2=C(OCC#C/C=C\C#CCO2)C(=O)c2ncccc21 [Compound 27]
Resp: not met

Req: Consider next the compound O=C1C2=C(OCC#C/C=C\C#CCO2)C(=O)c2ccccc21 [Compound 26] in the same way.
Resp: met

###

# Tested on: SNB-19
# assay_text: antiproliferative activity (WST-1), glioblastoma SNB-19
# Format: cell-based, human
# experimental_parameters: Homo sapiens; glioblastoma SNB-19, 72 h, WST-1; Neg: negative in the concentration used; read-out: IC50 ± SD SNB-19
measured_metric: pIC50
Reminder that pIC50 is minus the log10 of a molar concentration.

Req: Item C=CCOC1=C(OCC=C)C(=O)c2ccccc2C1=O [Compound 14, 2,3-di(2-Propenoxy)-1,4-naphthoquinon] has what recorded pIC50?
Resp: 4.71

Req: Another: C#CCOC1=C(OCC#C)C(=O)c2nc(C)ccc2C1=O [Compound 21]
Resp: 4.61

Req: Try this compound too: O=C1C(Cl)=C(OCC#CC=CC#CCO)C(=O)c2ncccc21 [Compound 24]
Resp: 5.62

Req: Try this compound too: CCCOC1=C(Cl)C(=O)c2ccccc2C1=O [Compound 4, 2-Chloro-3-propoxy-1,4-naphtoquinon]
Resp: 4.74

Req: Quick one: Cc1ccc2c(n1)C(=O)C(Cl)=C(Cl)C2=O [Compound 3, 6,7-dichloro-2-methyl-5,8-quinolinedione]
Resp: 4.80

Req: Could you do the same for Cc1ccc2c(n1)C(=O)C1=C(OCC#C/C=C\C#CCO1)C2=O [Compound 28] , please?
Resp: 3.80

Req: # iterate: C#CCOC1=C(OCC#C)C(=O)c2ccccc2C1=O [Compound 15, 2,3-di(2-Propynoxy)-1,4-naphthoquinon]
Resp: 4.73

Req: Also check O=C1C(Cl)=C(OCC#CC=CC#CCO)C(=O)c2ccccc21 [Compound 23]
Resp: 3.73

Req: // same read-out, input: OCC#C/C=C\C#CCO [Compound 22, (Z)-oct-4-ene-2,6-diyne-1,8-diol]
Resp: 3.60

Req: Request: O=C1C(Cl)=C(Cl)C(=O)c2ccccc21 [Compound 1, 2,3-Dichloro-1,4-naphtoquinon, reference compound]
Resp: 4.58

Req: Would you kindly repeat that for C#CCOC1=C(Cl)C(=O)c2ccc(C)nc2C1=O [Compound 12] ?
Resp: 4.71

Req: Input C=CCOC1=C(Cl)C(=O)c2ccccc2C1=O [Compound 5]
Resp: 5.42

Req: Would you kindly repeat that for Cc1ccc2c(n1)C(=O)C(OCC#CC=CC#CCO)=C(Cl)C2=O [Compound 25] ?
Resp: 3.77

Req: Proceed to C=CCOC1=C(Cl)C(=O)c2ccc(C)nc2C1=O [Compound 11]
Resp: 4.47

Req: Now give it for C#CCOC1=C(Cl)C(=O)c2ccccc2C1=O [Compound 6] too.
Resp: 5.08

Req: Can you handle CCCOC1=C(OCCC)C(=O)c2nc(C)ccc2C1=O [Compound 19] next?
Resp: 4.59

###

# Test system: MDA-MB-231
# assay_text: antiproliferative activity (WST-1), breast cancer MDA-MB-231
# Type: cell-based, human
# experimental_parameters: Homo sapiens; breast cancer MDA-MB-231, 72 h, WST-1; Neg: negative in the concentration used; read-out: IC50 ± SD MDA-MB-231
measured_metric: pIC50
Scale: negative log10 of molar concentration, which is what pIC50 denotes.

Req: Hello, I am looking for reported pIC50 with MDA-MB-231 for CCCOC1=C(OCCC)C(=O)c2ccccc2C1=O . Could you help?
Resp: 4.65

Req: Entry O=C1C(Cl)=C(OCC#CC=CC#CCO)C(=O)c2ccccc21 please
Resp: 4.65

Req: Now give it for C#CCOC1=C(OCC#C)C(=O)c2nc(C)ccc2C1=O too.
Resp: 4.63

Req: Please answer likewise for CCCOC1=C(Cl)C(=O)c2ccc(C)nc2C1=O
Resp: 4.65

Req: Follow-up item: O=C1C(Cl)=C(Cl)C(=O)c2ccccc21 [Compound 1, 2,3-Dichloro-1,4-naphtoquinon, reference compound]
Resp: 4.50

Req: Proceed to Cc1ccc2c(n1)C(=O)C(Cl)=C(Cl)C2=O
Resp: 4.63

Req: Also Cc1ccc2c(n1)C(=O)C1=C(OCC#C/C=C\C#CCO1)C2=O ?
Resp: 3.76

Req: Also, CCCOC1=C(Cl)C(=O)c2ccccc2C1=O please.
Resp: 5.85

Req: Now the molecule C=CCOC1=C(OCC=C)C(=O)c2ccccc2C1=O
Resp: 4.75

Req: Do the same for C=CCOC1=C(Cl)C(=O)c2ccc(C)nc2C1=O please
Resp: 4.61

Req: Next molecule: CCCOC1=C(OCCC)C(=O)c2nc(C)ccc2C1=O
Resp: 4.15

Req: Would you kindly repeat that for C=CCOC1=C(Cl)C(=O)c2ccccc2C1=O ?
Resp: 5.16

Req: For C#CCOC1=C(Cl)C(=O)c2ccccc2C1=O then?
Resp: 4.68

Req: Subsequent entry: O=C1C2=C(OCC#C/C=C\C#CCO2)C(=O)c2ncccc21
Resp: 4.60

Req: How about O=C1C2=C(OCC#C/C=C\C#CCO2)C(=O)c2ccccc21 ?
Resp: 5.70

Req: Ok, now Cc1ccc2c(n1)C(=O)C(OCC#CC=CC#CCO)=C(Cl)C2=O
Resp: 4.78

Req: Next entry: C=CCOC1=C(OCC=C)C(=O)c2nc(C)ccc2C1=O
Resp: 4.57

Req: Another: C#CCOC1=C(Cl)C(=O)c2ccc(C)nc2C1=O
Resp: 4.76

Req: Cool, now O=C1C(Cl)=C(OCC#CC=CC#CCO)C(=O)c2ncccc21
Resp: 3.96
